- experiment-description: Volume of distribution at steady state in beagle dog at 0.54 mg/kg, iv and 1.1 mg/kg, po
- Type: ADME, organism-based, Canis lupus familiaris
- condition-label: in vivo, read-out: Vdss
value-kind: Vd (L/kg)

{"compound": "COc1cccc2c1c(NS(=O)(=O)c1ccc(Cl)s1)nn2Cc1cccc(CNC(C)=O)c1", "reported": 3.2}

====

- tested-on: UniProtKB P51679
- experiment-description: Antagonist activity at human CCR4 in human whole blood assessed as inhibition of TARC-induced CD4+ CCR4+lymphocyte chemotaxis measuring F-actin content
- Format: functional, tissue-based
- condition-label: read-out: pA2 (converted)

{"compound": "COc1cccc2c1c(NS(=O)(=O)c1ccc(Cl)s1)nn2Cc1cccc(CNC(=O)CO)c1", "output-unit": "nM", "Kb": 2000}
{"compound": "COc1cccc2c1c(NS(=O)(=O)c1ccc(Cl)s1)nn2Cc1cccc(CO)c1", "output-unit": "nM", "Kb": 6310}
{"compound": "COc1cccc2c1c(NS(=O)(=O)c1ccc(Cl)s1)nn2Cc1cccc(C(N)=O)c1", "output-unit": "nM", "Kb": 1580}

====

- tested-on: C-C chemokine receptor type 4 (Homo sapiens)
- Sequence (P51679 whole entry): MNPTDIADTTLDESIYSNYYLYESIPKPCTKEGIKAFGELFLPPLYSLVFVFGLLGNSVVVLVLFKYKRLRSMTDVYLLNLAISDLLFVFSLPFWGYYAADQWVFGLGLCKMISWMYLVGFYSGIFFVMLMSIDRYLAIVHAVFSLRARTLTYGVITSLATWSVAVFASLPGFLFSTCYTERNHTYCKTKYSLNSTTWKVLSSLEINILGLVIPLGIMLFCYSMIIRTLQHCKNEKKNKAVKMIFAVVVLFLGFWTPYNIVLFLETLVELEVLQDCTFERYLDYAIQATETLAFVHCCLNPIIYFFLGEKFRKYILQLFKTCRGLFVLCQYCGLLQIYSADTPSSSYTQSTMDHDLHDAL
- experiment-description: Antagonist activity at human CCR4 expressed in CHO membranes assessed as inhibition of [35S]-GTPgammaS binding by scintillation counting
IC50 under 0.08 µM gets rule met, anything at or over 0.08 µM gets rule not met.

{"compound": "COc1ccc(Cn2nc(NS(=O)(=O)c3ccc(Cl)s3)c3c(OC)cccc32)cc1OC", "assigned-category": "rule met"}
{"compound": "COc1cccc2c1c(NS(=O)(=O)c1ccc(Cl)s1)nn2Cc1cccc(CO)c1", "assigned-category": "rule met"}
{"compound": "COc1cccc2c1c(NS(=O)(=O)c1ccc(Cl)s1)nn2Cc1cccc(CNC(=O)C(C)(C)O)c1", "assigned-category": "rule met"}
{"compound": "COc1cccc2c1c(NS(=O)(=O)c1ccc(Cl)s1)nn2Cc1cccc(CNC(=O)CO)c1", "assigned-category": "rule met"}
{"compound": "COc1cccc2c1c(NS(=O)(=O)c1ccc(Cl)s1)nn2Cc1cccc(CN)c1", "assigned-category": "rule not met"}
{"compound": "COc1cccc(Cn2nc(NS(=O)(=O)c3ccc(Cl)s3)c3c(OC)cccc32)c1", "assigned-category": "rule not met"}
{"compound": "COc1cccc2c1c(NS(=O)(=O)c1ccc(Cl)s1)nn2Cc1cccc(CN(C)C(C)=O)c1", "assigned-category": "rule not met"}
{"compound": "COc1cccc2c1c(NS(=O)(=O)c1ccc(Cl)s1)nn2Cc1ccccc1", "assigned-category": "rule not met"}

====

Below, each entry is listed with its recorded Papp.
- experiment-description: Permeability across MDCK cells
- Type: ADME, cell-based, Canis lupus familiaris
- condition-label: dog, read-out: permeability

{"compound": "COc1cccc2c1c(NS(=O)(=O)c1ccc(Cl)s1)nn2Cc1cccc(CNC(C)=O)c1", "Papp [×10⁻⁶ cm/s]": 25.4}
{"compound": "COc1cccc2c1c(NS(=O)(=O)c1ccc(Cl)s1)nn2Cc1cccc(CNC(=O)C(C)(C)O)c1", "Papp [×10⁻⁶ cm/s]": 13.2}
